Sourced from the RNAGym collection of RNA variant scans (doi:10.1073/pnas.2313332121)

Below, each of the variants is paired with its reported polymerase ribozyme fitness (log ratio) value.
B1: TPR 5TU (parent)
chain: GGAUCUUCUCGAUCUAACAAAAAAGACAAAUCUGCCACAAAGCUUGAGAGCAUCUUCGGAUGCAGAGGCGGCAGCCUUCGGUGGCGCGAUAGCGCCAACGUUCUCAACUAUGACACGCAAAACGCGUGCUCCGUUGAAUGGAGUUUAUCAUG

Variants of: B1
procedureDetails: polymerase ribozyme fitness, log enrichment relative to wild type (log ratio); higher = more active; in vitro selection for triplet polymerase activity
This sample holds only a part of the variants without activity.
Field format: numeric only.

1) A26U A97U A119G : -2.34
2) A26G A28U G42C G59C C96G C105G C116U : -4.04
3) C93A G143A : -2.78
4) A30U G92U : -3.52
5) U56A G124C : -1.68

Let us examine a further case.
Looking for the measured polymerase ribozyme fitness (log ratio) of U82G C87U , can you help?
-0.516
